- assayed target: GORASP1, Q9BQQ3
- Sequence (Q9BQQ3 1-208): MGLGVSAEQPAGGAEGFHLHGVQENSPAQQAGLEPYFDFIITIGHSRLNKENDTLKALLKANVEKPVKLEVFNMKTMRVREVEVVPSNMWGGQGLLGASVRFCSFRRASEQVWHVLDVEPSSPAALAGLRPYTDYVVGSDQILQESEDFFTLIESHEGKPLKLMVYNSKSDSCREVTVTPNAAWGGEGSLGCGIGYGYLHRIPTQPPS
- run description: holdup assay
- Parameters: key: below the threshold = too weak to quantify, mostly under pKd 3.1 to 4
- condition description: plain residues with an end cap or a label only (N-terminal biotin on a linker: ado-ado)
reported endpoint: pKd

- binder: "SFISKKEWYV [NECTIN1, Q15223]"
  reported endpoint: "pKd"
  result: 4.44
- binder: "DRIQSCLSDA [SBF1, O95248]"
  reported endpoint: "pKd"
  result: "below the threshold"
- binder: "ELSATVTTDC [TRIP6, Q15654]"
  reported endpoint: "pKd"
  result: "below the threshold"
- binder: "GIKKITSTAL [RPS6KA3, P51812]"
  reported endpoint: "pKd"
  result: 3.59
- binder: "ARGPPRESEV [FAM110D, Q8TAY7]"
  reported endpoint: "pKd"
  result: "below the threshold"
- binder: "PTPDLPQTRV [KLHDC7A, Q5VTJ3]"
  reported endpoint: "pKd"
  result: "below the threshold"
- binder: "PSVGSKKTVL [REELD1, A0A1B0GV85]"
  reported endpoint: "pKd"
  result: "below the threshold"
- binder: "APIAGFSSFV [SDK2, Q58EX2]"
  reported endpoint: "pKd"
  result: 3.75
- binder: "DGVNEKVSCV [HTR2A, P28223]"
  reported endpoint: "pKd"
  result: "below the threshold"
- binder: "RQKEVRESKC [SCN8A, Q9UQD0]"
  reported endpoint: "pKd"
  result: "below the threshold"
